From: ChEMBL document CHEMBL1143622

- assay: Inhibitory activity against Coagulation factor X
experimental readout: Ki (µM)

CCOC(=O)CC[C@H](NC(=O)[C@H](Cc1ccccc1)C(=O)Nc1ccc2c(c1)OCC(=O)N2Cc1ccc(C(=N)N)cc1)C(=O)OCC :: 54.1
N=C(N)c1ccc(CN2C(=O)COc3cc(NC(=O)C(Cc4ccccc4)C(=O)O)ccc32)cc1 (stereo unspecified) :: 31.6

a = N=C(N)c1ccc(CN2C(=O)COc3cc(NC(=O)C(Cc4ccccc4)C(=O)N[C@@H](CCC(=O)O)C(=O)O)ccc32)cc1 (stereo partly specified)
b = CCOC(=O)C[C@H](NC(=O)c1ccc2c(c1)OC(OCc1ccc(C(=N)N)cc1)C(=O)N2C)c1ccccc1 (stereo partly specified)
c = CCOC(=O)[C@H](Cc1ccccc1)C(=O)Nc1ccc2c(c1)OCC(=O)N2Cc1ccc(C(=N)N)cc1
Rank the items in ascending order with respect to Ki. Please reply with the labels ordered as requested. Many thanks. c, a, b
